Tested on: SF-295
Assay: NCI tumour cell line growth inhibition, 48 h
The source made the active and inactive calls. No stated cut-off is given here; in the data, active = GI50 up to about 1.1 µM and inactive = higher.
Recorded GI50 by entry

O=C1NC2OC(CO)C(O)C(O)C2O1 (stereo not given)
> 100 µM (inactive)
O=C(O)CNC(=O)c1ccc(-c2ccccc2)cc1
> 100 µM (inactive)
CC(=O)NC(CS/N=N/c1[nH]cnc1C(N)=O)C(=O)O (stereo not given)
4.16 µM (inactive)
Nc1nc(SCc2ccccc2Cl)c2ncn(C3OC(CO)C(O)C3O)c2n1 (stereo not given)
59.4 µM (inactive)
COC(=O)[C@@H](O)[C@]1(C(=O)OC)C2O[C@@H](OC)[C@@H]1CCCCCC[C@H]2O
> 100 µM (inactive)
COC(=O)[C@@H]1CN(C(C)=O)C(=O)N1C(=O)OCc1ccccc1
> 100 µM (inactive)

Form: compound = `COc1ccc(NC(=O)CC(=O)n2nc(-c3ccccc3)c(/N=N/c3ccccc3C(=O)O)c2-c2ccccc2)cc1` ; GI50 = 42.4 µM (inactive)

Form: compound = `CCCCn1c2ccccc2c2ccc3c(c21)C(=O)C=CC3=O` ; GI50 = > 100 µM (inactive)

Form: compound = COc1ccc2c(c1)OCC1Cc3cccc(OC)c3OC21 (stereo not given) ; GI50 = 64.6 µM (inactive)

Form: compound = `O=C(NCC(O)CNC(=O)C(F)(F)F)C(F)(F)F` ; GI50 = > 100 µM (inactive)

Form: compound = CCOC(=O)C(NS(=O)(=O)c1ccccc1)(C(F)(F)F)P(=O)(OCC(C)C)OCC(C)C (stereo not given) ; GI50 = > 100 µM (inactive)

Form: compound = CC(=O)OCC1OC(SC2=N/C(=C\c3cc4c(=O)c5ccccc5sc4s3)C(=O)N2c2ccccc2)C(OC(C)=O)C(OC(C)=O)C1OC(C)=O (stereo not given) ; GI50 = > 100 µM (inactive)

Form: compound = `COc1ccccc1N/C(SCc1ccccc1)=C(/C(Cl)=C(Cl)Cl)[N+](=O)[O-]` ; GI50 = 25.7 µM (inactive)

Form: compound = `Cc1ccc(C=C(C(=O)O)C(=O)O)o1` ; GI50 = > 100 µM (inactive)

Form: compound = CN(C)c1ccc(C(Cc2ccccc2)C2NC(=S)NC2=O)cc1 (stereo not given) ; GI50 = > 95.7 µM (inactive)

Form: compound = O=C(O)CCC(N/C=C1/N=C(c2ccccc2)OC1=O)C(=O)O (stereo not given) ; GI50 = > 100 µM (inactive)

Form: compound = `COC(=O)c1cc2c(cc1Cl)Sc1nnc(Nc3ccccc3)n1S2(=O)=O` ; GI50 = 3.78 µM (inactive)

Form: compound = `C[N+](C)(C)C1(C(=O)[O-])CC1` ; GI50 = > 100 µM (inactive)

Form: compound = `C=CCN1C[C@H](C)N([C@H](c2ccc(C(=O)N(CC)CCO)cc2)c2cccc(OC)c2)C[C@H]1C` ; GI50 = > 100 µM (inactive)

Form: compound = `COC(=O)c1cc(OCc2cc(OCc3ccc(Br)cc3)cc(OCc3ccc(Br)cc3)c2)cc(OCc2cc(OCc3ccc(Br)cc3)cc(OCc3ccc(Br)cc3)c2)c1` ; GI50 = > 100 µM (inactive)
